Molecular target: CB1 (mutant) (Homo sapiens)
Sequence (P21554 1-417, change not shown): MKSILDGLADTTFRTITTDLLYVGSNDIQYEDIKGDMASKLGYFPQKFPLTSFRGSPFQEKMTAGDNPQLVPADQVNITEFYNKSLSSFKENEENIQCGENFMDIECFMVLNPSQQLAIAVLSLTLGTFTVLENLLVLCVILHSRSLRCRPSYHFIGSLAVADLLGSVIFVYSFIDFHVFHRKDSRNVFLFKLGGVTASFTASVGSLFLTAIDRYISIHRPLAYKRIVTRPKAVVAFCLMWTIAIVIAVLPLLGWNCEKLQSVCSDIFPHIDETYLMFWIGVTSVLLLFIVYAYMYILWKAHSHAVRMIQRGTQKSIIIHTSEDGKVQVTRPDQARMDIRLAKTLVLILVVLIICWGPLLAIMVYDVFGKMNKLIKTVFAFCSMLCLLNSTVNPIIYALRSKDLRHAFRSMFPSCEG
Experiment: R-SAT functional receptor assay, CB1 (mutant, truncated after amino acid 417)
Type: cell-based
Conditions: Appendix A; R-SAT CB1; receptor form not stated; relative to SR141716 (100%); read-out: % Inhibition
# binarize Emax: threshold 90% inclusive, high side true (1), low side false (0)

Consider the worked cases shown below.
O=C(NCc1ccccn1)c1ccc2c(c1)N=C(N1CCCCC1)c1ccccc1S2    false (0)
Cc1ccc(CNC(=O)c2ccc3c(c2)N=C(c2ccc(Cl)c(Cl)c2)c2ccccc2S3)o1 [drawing 801]    true (1)

Request: Hello, I need to know if CCONC(=O)c1ccc2c(c1)N=C(c1ccc(F)cc1)c1ccccc1S2 has measured Emax not below 90%. Thanks!
Result: true (1)

Request: hey, is Emax for this one >= 90%? CCCSCCCNC(=O)c1ccc2c(c1)N=C(CCC)c1ccccc1S2
Result: false (0)

Request: Is reported Emax greater than or equal to 90% here: CCCC1=Nc2cc(C(=O)NC(C)CCc3ccccc3)ccc2Sc2ccccc21 (stereo not drawn)
Result: true (1)

Request: Decide: Emax of CCCCN(C)C(=O)c1ccc2c(c1)N=C(c1cccc(Cl)c1)c1ccccc1S2 >= 90%?
Result: false (0)

Request: For this molecule, is measured Emax 90% or higher? O=C(NCc1cccs1)c1ccc2c(c1)N=C(c1ccccc1Cl)c1ccccc1S2
Result: false (0)

Request: Item COCCNC(=O)c1ccc2c(c1)N=C(c1ccc(Br)cc1)c1ccccc1S2 [drawing 1081] with Emax of 90% or above?
Result: false (0)

Request: Assess whether reported Emax for O=C(NC1CCCC1)c1ccc2c(c1)N=C(c1ccc(Cl)c(Cl)c1)c1ccccc1S2 [drawing 672] sits at 90% or higher.
Result: true (1)

The values you see were collected from patent US20080090805A1.
